system-name: T1, human G-protein-coupled receptor family C group 5 member D (GPRC5D) (human, UniProt Q9NZD1 1-345)
T1 construct: whole, on cells; also called human GPRC5D protein
T1 sequence (Q9NZD1 whole entry): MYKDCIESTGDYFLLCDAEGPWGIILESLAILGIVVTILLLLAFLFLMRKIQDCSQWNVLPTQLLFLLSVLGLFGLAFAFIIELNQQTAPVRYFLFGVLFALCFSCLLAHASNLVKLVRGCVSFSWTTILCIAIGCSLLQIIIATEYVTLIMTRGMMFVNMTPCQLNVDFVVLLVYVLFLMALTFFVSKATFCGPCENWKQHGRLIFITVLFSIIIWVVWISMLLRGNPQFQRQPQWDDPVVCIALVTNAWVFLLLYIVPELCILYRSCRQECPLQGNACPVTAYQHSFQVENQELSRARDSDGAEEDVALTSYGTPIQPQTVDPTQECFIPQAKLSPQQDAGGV
test: FACS, NCI-H929 cells
Please use t whenever Span is not below 20000, and f whenever it is.

>  <binder>
34-H1L1 (antibody, V domains shown, humanized 34D3H1, VH v1 x VL v1) VH: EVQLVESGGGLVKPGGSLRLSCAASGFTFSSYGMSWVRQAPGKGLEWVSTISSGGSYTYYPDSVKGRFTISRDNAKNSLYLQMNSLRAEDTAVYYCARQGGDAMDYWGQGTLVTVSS VL: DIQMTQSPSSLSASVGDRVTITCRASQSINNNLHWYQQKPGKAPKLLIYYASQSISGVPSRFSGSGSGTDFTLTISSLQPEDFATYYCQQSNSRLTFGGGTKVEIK

>  <group-label>
f

$$$$
>  <binder>
6-H3L3 (antibody, V domains shown, humanized 6G10D9, VH v3 x VL v3) VH: QVQLVQSGAEVAKPGASVKVSCKASGYTFTTYTMHWVKQAPGQGLEWLGYINPSSGYTNYNQKFKDRVTMTADTSTSTVYMELSSLRSEDTAVYYCASLRSRGYFDYWGQGTLVTVSS VL: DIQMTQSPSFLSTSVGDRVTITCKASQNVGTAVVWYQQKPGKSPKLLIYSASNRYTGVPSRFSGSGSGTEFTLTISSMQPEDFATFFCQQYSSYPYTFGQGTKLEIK

>  <group-label>
t

$$$$
>  <binder>
6-H4L3 (antibody, V domains shown, humanized 6G10D9, VH v4 x VL v3) VH: QVQLVQSGAEVAKPGASVKMSCKASGYTFTTYTMHWVKQAPGQGLEWLGYINPSSGYTNYNQKFKDRVTLTADTSTSTVYMELSSLRSEDTAVYYCASLRSRGYFDYWGQGTLLTVSS VL: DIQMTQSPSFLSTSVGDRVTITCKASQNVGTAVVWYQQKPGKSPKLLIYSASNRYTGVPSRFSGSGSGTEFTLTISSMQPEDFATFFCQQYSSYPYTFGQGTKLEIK

>  <group-label>
t

$$$$
>  <binder>
37-H1L1 (antibody, V domains shown, humanized 37B9C4, VH v1 x VL v1; also called 37B9C4 (H1L1)) VH: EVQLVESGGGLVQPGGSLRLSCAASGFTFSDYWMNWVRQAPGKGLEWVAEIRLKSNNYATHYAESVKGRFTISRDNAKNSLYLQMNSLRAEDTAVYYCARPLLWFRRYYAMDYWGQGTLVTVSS VL: DIQMTQSPSSLSASVGDRVTITCSASQGISNYLNWYQQKPGKAPKLLIYYTSSLHSGVPSRFSGSGSGTDFTLTISSLQPEDFATYYCQQYSKLPFTFGQGTKLEIK

>  <group-label>
f

$$$$
>  <binder>
6G10D9-XI (antibody, V domains shown, also called 6G10D9 (chimeric); 6G1009-X1) VH: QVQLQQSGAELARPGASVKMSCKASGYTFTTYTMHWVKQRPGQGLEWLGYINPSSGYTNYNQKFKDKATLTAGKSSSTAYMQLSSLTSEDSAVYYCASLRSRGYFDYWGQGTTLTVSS VL: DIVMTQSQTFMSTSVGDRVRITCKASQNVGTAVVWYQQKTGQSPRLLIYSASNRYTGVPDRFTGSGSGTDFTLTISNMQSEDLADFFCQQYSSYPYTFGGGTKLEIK

>  <group-label>
f

$$$$
>  <binder>
58-H3L1 (antibody, V domains shown, humanized 58F9G10, VH v3 x VL v1) VH: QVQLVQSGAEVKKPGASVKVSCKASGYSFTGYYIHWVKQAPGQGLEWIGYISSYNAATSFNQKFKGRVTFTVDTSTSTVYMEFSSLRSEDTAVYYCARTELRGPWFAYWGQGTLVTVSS VL: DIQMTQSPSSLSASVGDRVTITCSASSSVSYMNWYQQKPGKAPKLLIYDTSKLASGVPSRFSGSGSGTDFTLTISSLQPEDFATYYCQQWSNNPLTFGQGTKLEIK

>  <group-label>
f

$$$$
>  <binder>
37B9C4-XI (antibody, V domains shown, also called 37B9C4 (chimeric); 37-XI) VH: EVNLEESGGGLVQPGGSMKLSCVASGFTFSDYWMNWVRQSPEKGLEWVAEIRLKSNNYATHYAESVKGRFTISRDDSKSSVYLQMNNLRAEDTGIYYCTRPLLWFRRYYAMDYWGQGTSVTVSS VL: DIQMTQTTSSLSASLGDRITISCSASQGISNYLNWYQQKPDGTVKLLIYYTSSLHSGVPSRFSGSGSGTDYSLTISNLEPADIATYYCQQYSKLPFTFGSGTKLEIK

>  <group-label>
f

$$$$
>  <binder>
34-XI (antibody, V domains shown, also called 34D3H1 (chimeric)) VH: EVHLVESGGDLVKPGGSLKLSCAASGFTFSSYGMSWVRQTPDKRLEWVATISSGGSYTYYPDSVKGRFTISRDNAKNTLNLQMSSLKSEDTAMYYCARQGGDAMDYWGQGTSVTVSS VL: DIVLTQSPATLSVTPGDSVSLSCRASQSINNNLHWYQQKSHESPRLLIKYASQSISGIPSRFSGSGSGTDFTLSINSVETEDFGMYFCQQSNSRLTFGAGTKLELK

>  <group-label>
f

$$$$
>  <binder>
58-H1L1 (antibody, V domains shown, humanized 58F9G10, VH v1 x VL v1) VH: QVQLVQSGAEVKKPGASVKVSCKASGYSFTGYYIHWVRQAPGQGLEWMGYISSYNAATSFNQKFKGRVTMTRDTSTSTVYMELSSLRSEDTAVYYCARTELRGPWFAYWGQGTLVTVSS VL: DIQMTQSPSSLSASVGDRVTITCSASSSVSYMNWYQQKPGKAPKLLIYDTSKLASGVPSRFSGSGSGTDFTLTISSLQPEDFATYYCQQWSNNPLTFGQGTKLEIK

>  <group-label>
f

$$$$
>  <binder>
58F9G10-XI (antibody, V domains shown, also called 58F9G10 (chimeric); 58-XI) VH: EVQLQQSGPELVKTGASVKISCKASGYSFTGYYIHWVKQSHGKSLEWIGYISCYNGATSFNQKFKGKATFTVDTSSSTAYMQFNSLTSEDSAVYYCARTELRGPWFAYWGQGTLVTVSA VL: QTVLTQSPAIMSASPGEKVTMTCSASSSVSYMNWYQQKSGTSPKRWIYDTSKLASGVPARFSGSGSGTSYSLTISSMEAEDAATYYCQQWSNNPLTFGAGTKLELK

>  <group-label>
f

$$$$
